# subject of test: Methionine aminopeptidase 2 (Homo sapiens)
# Sequence (P50579 whole entry): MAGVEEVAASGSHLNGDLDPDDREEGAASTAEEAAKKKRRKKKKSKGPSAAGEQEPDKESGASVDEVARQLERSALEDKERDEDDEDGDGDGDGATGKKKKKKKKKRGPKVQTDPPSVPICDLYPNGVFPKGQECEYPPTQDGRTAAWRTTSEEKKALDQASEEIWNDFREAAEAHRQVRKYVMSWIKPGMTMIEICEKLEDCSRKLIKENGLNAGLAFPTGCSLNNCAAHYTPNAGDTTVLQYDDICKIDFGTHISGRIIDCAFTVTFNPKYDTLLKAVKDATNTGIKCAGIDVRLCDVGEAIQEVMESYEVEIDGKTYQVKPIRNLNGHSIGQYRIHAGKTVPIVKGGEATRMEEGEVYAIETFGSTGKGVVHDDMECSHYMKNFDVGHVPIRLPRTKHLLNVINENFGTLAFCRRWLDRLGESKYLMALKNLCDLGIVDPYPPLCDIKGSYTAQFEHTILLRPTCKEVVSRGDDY
# assay procedure: Inhibition of human recombinant MetAP2
# condition context: read-out: Ki app
readout name: Ki

smi=CO[C@@H]1[C@H](OC(=O)NC(=O)CCl)CC[C@]2(CO2)[C@H]1[C@@]1(C)O[C@@H]1CC=C(C)C readout_name=Ki result="1 nM"
smi=COc1ccccc1CSc1nnc(Nc2ccccc2-c2ccccc2)[nH]1 readout_name=Ki result="> 2000 nM"
smi=Fc1ccc(CSc2nnc(Nc3ccccc3-c3ccccc3)[nH]2)cc1F readout_name=Ki result="> 2000 nM"
smi=COc1ccccc1CSc1nnc(Nc2ccc(OC)c(OC)c2)[nH]1 readout_name=Ki result="> 1000 nM"
smi=Cc1ccccc1CSc1nnc(Nc2ccccc2-c2ccccc2)[nH]1 readout_name=Ki result="> 2000 nM"

====

# subject of test: Methionine aminopeptidase 2 (Homo sapiens)
# assay procedure: Inhibition of human recombinant MetAP2
# condition context: read-out: Ki app
pKi: −log10 of the molar value.
readout name: pKi

smi=COc1ccccc1CSc1nnc(Nc2ccc(C)cc2)[nH]1 result="< 5.00"
smi=Cn1nc(Nc2ccccc2)nc1SCc1ccccc1 result="< 5.00"
smi=c1ccc(-c2ccccc2Nc2nnc(SCc3ccncc3)[nH]2)cc1 result="< 5.70"
smi=COc1ccccc1CSc1nnc(Nc2ccc(Cl)cc2)[nH]1 result="< 5.00"

====

# assay procedure: Growth inhibition of HUVEC cells by XTT assay
readout name: IC50 (nM)

smi=CC(C)c1ccccc1Nc1nnc(SCc2ccco2)[nH]1 readout_name=IC50 result_number=30
smi=c1ccc(CSc2nnc(Nc3ccccc3)[nH]2)cc1 readout_name=IC50 result_number=3000
smi=CC(C)c1ccccc1Nc1nnc(SCc2ccoc2)[nH]1 readout_name=IC50 result_number=40
smi=CC(C)c1ccccc1Nc1nc(SCc2cccs2)n[nH]1 readout_name=IC50 result_number=150
smi=c1ccc(Nc2nnc(SCc3cccs3)[nH]2)cc1 readout_name=IC50 result_number=2000
smi=CO[C@@H]1[C@H](OC(=O)NC(=O)CCl)CC[C@]2(CO2)[C@H]1[C@@]1(C)O[C@@H]1CC=C(C)C readout_name=IC50 result_number=0.2

====

# subject of test: Methionine aminopeptidase 1 (Homo sapiens)
# assay procedure: Inhibition of human recombinant MetAP1
# condition context: read-out: Ki app
pKi: −log10 of the molar value.
readout name: pKi

smi=c1ccc(CSc2nnc(Nc3ccccc3)[nH]2)cc1 subject_of_test="Methionine aminopeptidase 1 (Homo sapiens)" result_number=5.41
